Source of measurements: patent US20260242478A1

measured target: T1, Anti-PSMA Fab (SEQ ID NOs: 19, 20)
T1 construct: Biotinylated and captured on neutravidin coated plates in the phage ELISA; also called 006 PSMA Fab
method: phage binding ELISA; biotinylated anti-PSMA Fab on neutravidin plate, clonal phage supernatant, anti-M13 HRP detection
result type: Anti-PSMA Fab (SEQ ID NOs: 19, 20) signal

| binder | reading |
| --- | --- |
| QEKWCIPMWMCESL [Phage-2106] | 1.73 |
| SERWCIPEWMCSMP [Phage-2114] | 1.72 |
| EWKWCTPSWMCEDA [Phage-2105] | 1.73 |
| SENWCIPSWMCQGF [Phage-2103] | 1.73 |
| MERWCIPEWMCATT [Phage-2102] | 1.73 |
| SAMLCKPQWMCDGF [Phage-2108] | 1.72 |
| WENWCTPSWMCSVL [Phage-2116] | 1.72 |
